# TARGET SYSTEM: T1, monomeric human CSF1R ectodomain protein (human, UniProt P07333 20-517)
# T1 construct: also called biotinylated monomeric human CSF1R
# MEASUREMENT PROTOCOL: SPR Biacore, IgG captured, monomeric CSF1R analyte
Listed here are binders together with their documented koff.
MEASUREMENT LABEL: koff (s⁻¹)

BINDER: MH5 (antibody, human IgG4, V domains shown, Designer (maximally humanized) clone; tested as human IgG4(S228P)/Ckappa IgG; also called mAb-2) VH: QVQLVQSGAEVKKPGSSVKVSCKASGYTFSSYYMIWVRQAPGQGLEWMGDINPYNGGANYAQKFQGRVTITADESTSTAYMELSSLRSEDTAVYYCAREGPYFSNLYVMDYWGQGTLVTVSS VL: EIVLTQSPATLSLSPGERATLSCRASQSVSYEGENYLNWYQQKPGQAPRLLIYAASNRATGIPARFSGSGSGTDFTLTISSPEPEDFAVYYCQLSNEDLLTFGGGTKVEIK
MEASUREMENT LABEL: koff
EXPERIMENTAL VALUE: 0.00036

BINDER: humanized anti-CSF1R antibody 0301 (hu0301) (antibody, human IgG4, V domains shown, also called mAb-1) VH: QVQLVQSGAEVKKPGSSVKVSCKASGYTFTDNYMIWVRQAPGQGLEWMGDINPYNGGTTFNQKFKGRVTITADKSTSTAYMELSSLRSEDTAVYYCARESPYFSNLYVMDYWGQGTLVTVSS VL: EIVLTQSPATLSLSPGERATLSCKASQSVDYDGDNYMNWYQQKPGQAPRLLIYAASNLESGIPARFSGSGSGTDFTLTISSLEPEDFAVYYCHLSNEDLSTFGGGTKVEIK
MEASUREMENT LABEL: koff
EXPERIMENTAL VALUE: 0.00047

BINDER: 30D02 (antibody, human IgG4, V domains shown, Library-derived clone, tested as human IgG4(S228P)/Ckappa IgG; framework residue limits counted on the grafts) VH: QVQLVQSGAEVKKPGSSVKVSCKASGYTFSSYYMIWVRQAPGQGLEWMGDINPYNGGTTYAQKFQGRVTITADESTSTAYMELSSLRSEDTAVYYCAREGPYFSNLYVMDYWGQGTLVTVSS VL: EIVLTQSPATLSLSPGERATLSCRASQSVEYQGENYLNWYQQKPGQAPRLLIYAASNRATGIPARFSGSGSGTDFTLTISSLEPEDFAVYYCQLSNQDLLTFGGGTKVEIK
MEASUREMENT LABEL: koff
EXPERIMENTAL VALUE: 0.00049

BINDER: MH6 (antibody, V domains shown, Designer clone, human IgG4(S228P)/Ckappa IgG) VH: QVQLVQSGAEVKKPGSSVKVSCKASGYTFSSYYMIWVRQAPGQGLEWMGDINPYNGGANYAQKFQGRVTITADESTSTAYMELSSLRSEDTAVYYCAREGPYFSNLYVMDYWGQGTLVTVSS VL: EIVLTQSPATLSLSPGERATLSCRASQSVSYEGENYLAWYQQKPGQAPRLLIYAASNRATGIPARFSGSGSGTDFTLTISSLEPEDFAVYYCQLSNQDLLTFGGGTKVEIK
MEASUREMENT LABEL: koff
EXPERIMENTAL VALUE: 0.0012
